- targetOrSystem: SMYD3 (Homo sapiens (Human), UniProt Q9H7B4)
- Sequence (Q9H7B4 whole entry): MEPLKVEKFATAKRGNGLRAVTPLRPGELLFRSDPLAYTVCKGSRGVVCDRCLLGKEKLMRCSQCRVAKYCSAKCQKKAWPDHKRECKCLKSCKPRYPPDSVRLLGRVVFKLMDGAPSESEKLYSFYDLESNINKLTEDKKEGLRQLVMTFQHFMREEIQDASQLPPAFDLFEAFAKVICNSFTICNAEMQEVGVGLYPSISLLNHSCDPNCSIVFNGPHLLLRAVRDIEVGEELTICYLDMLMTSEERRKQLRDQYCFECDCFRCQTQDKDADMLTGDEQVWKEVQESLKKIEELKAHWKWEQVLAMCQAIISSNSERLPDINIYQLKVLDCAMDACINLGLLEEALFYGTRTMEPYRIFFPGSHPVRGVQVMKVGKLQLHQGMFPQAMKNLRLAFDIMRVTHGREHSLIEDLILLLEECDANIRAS
- methodSummary: SMYD3 biochemical assay (SMYD3 enzyme assay on MEKK2 protein substrate, 3H-SAM scintillation proximity assay)
- assaySetup: read-out: SMYD3 Biochem IC50
measureName: IC50 (µM)

A: COc1ccc2cc(C(C)C(=O)NC(C)C3CCN(C(=O)[C@H](C)N)CC3)ccc2c1 (stereo partly shown)
B: NCCC(=O)N[C@H]1CC[C@H](NC(=O)/C=C/c2c[nH]cn2)CC1
Between A and B , which one shows the smaller IC50 number? In your reply, give the label of the chosen option.
A

----------
- targetOrSystem: UniProtKB Q9NRG4
- Sequence (Q9NRG4 whole entry): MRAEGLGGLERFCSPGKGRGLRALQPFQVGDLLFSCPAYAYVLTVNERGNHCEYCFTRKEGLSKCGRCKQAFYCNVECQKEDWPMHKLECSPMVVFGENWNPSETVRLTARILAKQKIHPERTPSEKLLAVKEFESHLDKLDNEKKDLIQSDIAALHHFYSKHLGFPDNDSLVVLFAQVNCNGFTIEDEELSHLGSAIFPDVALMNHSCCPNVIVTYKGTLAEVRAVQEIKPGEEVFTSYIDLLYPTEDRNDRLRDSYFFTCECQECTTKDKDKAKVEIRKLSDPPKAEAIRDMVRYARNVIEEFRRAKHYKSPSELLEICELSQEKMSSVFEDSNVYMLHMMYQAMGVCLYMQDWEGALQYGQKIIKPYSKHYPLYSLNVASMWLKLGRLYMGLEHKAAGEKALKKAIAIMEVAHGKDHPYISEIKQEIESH
- methodSummary: SMYD2 biochemical assay (SMYD2 enzyme assay on peptide substrate, 3H-SAM Flashplate)
- assaySetup: read-out: SMYD2 Biochem IC50; IC50 values are an average of n = 1 to n = 50
measureName: IC50 (nM)

Please review the following examples before continuing.
Provide IC50 value for the following molecule: CC(C)N1CC(NC(=O)c2cn(C3CC3)cn2)C1
4600

Provide IC50 value for the following molecule: CCC(c1ccccc1F)N1CC(NC(=O)c2cn(C3CC3)nn2)C1 (stereo not drawn)
425

Provide IC50 value for the following molecule: CC(c1c[nH]cn1)N1CC(NC(=O)c2cn(C3CC3)nn2)C1 (stereo not drawn)
2590

Provide IC50 value for the following molecule: O=C(NC1CN(Cc2ccc(OCc3cscn3)cc2)C1)c1cn(C2CC2)nn1 [compound 846]
1090

Provide IC50 value for the following molecule: O=C(NC1CN(Cc2ccc(OCc3nncs3)cc2)C1)c1cn(C2CC2)nn1
1900

Provide IC50 value for the following molecule: O=C(NC1CN(C2CCc3cc(Cl)ccc32)C1)c1cn(C2CC2)nn1 (stereo not drawn)
4410

Provide IC50 value for the following molecule: CC(C)N1CCCC(NC(=O)c2cn(C3CC3)nn2)C1 (stereo not drawn)
19800

Provide IC50 value for the following molecule: O=C(NC1CN(Cc2ccc(OCCCO)cc2)C1)c1cn(C2CC2)nn1
3220

Provide IC50 value for the following molecule: O=C(NC1CN(Cc2cnn(CCc3ccccc3)c2)C1)c1cc(C2CC2)cnn1
528

Provide IC50 value for the following molecule: CC(c1ccc(OCC(C)(C)C)cc1)N1CC(NC(=O)c2cn(C3CC3)nn2)C1 (stereo not drawn)
3140

a: O=C(NC1CN(CC2CC2)C1)c1cn(C2CC2)nn1
b: CC(c1ccc(OCC2CCNCC2)cc1)N1CC(NC(=O)c2cn(C3CC3)nn2)C1 (stereo not drawn)
Thinking about recorded IC50 values, which is higher, a or b ? In your reply, give the label of the chosen option.
b
(b: 4300 nM, a: 2000 nM)

a: CC(c1ccc2c(c1)OCCO2)N1CC(NC(=O)c2cn(C3CC3)nn2)C1 (stereo not drawn)
b: CC(C)N1CC(NC(=O)c2cn(C3CC3)nn2)C1(C)C (stereo not drawn)
Thinking about recorded IC50 values, which is higher, a or b ? In your reply, give the label of the chosen option.
b

P: CC(c1ccccc1C(F)(F)F)N1CC(NC(=O)c2cn(C3CC3)nn2)C1 (stereo not drawn)
Q: O=C(NC1CN(Cc2cn(CCc3ccccc3)cn2)C1)c1cn(C2CC2)nn1
R: COCCOc1cccc(CN2CC(NC(=O)c3cn(C4CC4)nn3)C2)c1
S: Cn1cnc(CN2CC(NC(=O)c3cn(C4CC4)nn3)C2)c1Cl
Arrange these 4 molecules in increasing order of IC50. Give me the labels in the order the question wants.
P, Q, R, S
(P: 1010 nM, Q: 2620 nM, R: 8030 nM, S: 21000 nM)
